measurement description: Toxic effects on Vero cells by CCK-8 assay
run conditions: African green monkey, Vero cells
property: CC50 at 48 h

## Input Give the measured CC50 at 48 h of `CCC(CC)COC(=O)[C@H](C)N[P@](=O)(OC[C@H]1O[C@@](C#N)(c2ccc3c(N)ncnn23)[C@H](O)[C@@H]1O)Oc1ccccc1` .
## Output > 50 µM

----------
Test system: novel coronavirus
measurement description: organism not typed
Format: cell-based, African green monkey
run conditions: Vero; positive control group
property: IC50 (nM)
Please state the figure in nM; there is no need to write the unit.

## Input Give the measured IC50 of CCC(CC)COC(=O)[C@H](C)N[P@](=O)(OC[C@H]1O[C@@](C#N)(c2ccc3c(N)ncnn23)[C@H](O)[C@@H]1O)Oc1ccccc1 [Remdesivir] .
## Output 120

Taken from patent US12703728B2.
